assay: H1N1 influenza NS1A inhibitors, functional cell based assay (AID 504329); conditions: percent inhibition, at 12.5 µM, stronger effect = higher value
The campaign covered roughly 340,000 compounds. About 1,000 (0.29%) were called active. A selection follows. Potency and affinity values are given separately.
inhibition values, listed per item
Lab book: enter the figure in %, no units written.

1. CCCCC(=O)Nc1cccc(C(=O)N/N=C/c2ccc(OC)cc2OC)c1 = 1.12
2. COc1ccc(NC(=S)N2CCN(Cc3ccccc3)CC2)c(OC)c1 = -3.28
3. Cc1cc2nc(-c3ccc(SCC(=O)Nc4ccc(S(=O)(=O)NC5CC5)cc4)nc3)[nH]c2cc1C = -2.72

Okay, now this compound:
stdin: Which inhibition is reported for this compound? Oc1c(Cl)cc(Cl)c2cccnc12
stdout: -14.4
